# assay details: AUC (24 hrs) in rat at 10 mg/kg, po
# Format: ADME, organism-based
# Design: time < 24 hr, dose 10 mg/kg, route oral
# setup conditions: plasma
Known AUC at 24 h of a selection of molecules
Report the value in ng·h/mL with no unit label.

Annotate the molecule CC(=O)N1CCC(NC(=O)Nc2ccc(C(F)(F)F)cc2)CC1 with its measured AUC at 24 h. 13100

Annotate the molecule CC(=O)N1CCC(NC(=O)NC2CCCCCC2)CC1 with its measured AUC at 24 h. 7840

Annotate the molecule CC(=O)N1CCC(NC(=O)NC23CC4CC(CC(C4)C2)C3)CC1 with its measured AUC at 24 h. 720

Annotate the molecule CC(=O)N1CCC(NC(=O)NC2CC3(C)CCC2CC3)CC1 (configuration not stated) with its measured AUC at 24 h. 1480

Annotate the molecule O=C(NC1CCCCC1)NC1CCN(C(=O)c2ccccn2)CC1 with its measured AUC at 24 h. 8320

Annotate the molecule CS(=O)(=O)N1CCC(NC(=O)Nc2ccc(C(F)(F)F)cc2)CC1 with its measured AUC at 24 h. 6850

----------
# experimental system: Bifunctional epoxide hydrolase 2 (Homo sapiens)
# Sequence (P34913 whole entry): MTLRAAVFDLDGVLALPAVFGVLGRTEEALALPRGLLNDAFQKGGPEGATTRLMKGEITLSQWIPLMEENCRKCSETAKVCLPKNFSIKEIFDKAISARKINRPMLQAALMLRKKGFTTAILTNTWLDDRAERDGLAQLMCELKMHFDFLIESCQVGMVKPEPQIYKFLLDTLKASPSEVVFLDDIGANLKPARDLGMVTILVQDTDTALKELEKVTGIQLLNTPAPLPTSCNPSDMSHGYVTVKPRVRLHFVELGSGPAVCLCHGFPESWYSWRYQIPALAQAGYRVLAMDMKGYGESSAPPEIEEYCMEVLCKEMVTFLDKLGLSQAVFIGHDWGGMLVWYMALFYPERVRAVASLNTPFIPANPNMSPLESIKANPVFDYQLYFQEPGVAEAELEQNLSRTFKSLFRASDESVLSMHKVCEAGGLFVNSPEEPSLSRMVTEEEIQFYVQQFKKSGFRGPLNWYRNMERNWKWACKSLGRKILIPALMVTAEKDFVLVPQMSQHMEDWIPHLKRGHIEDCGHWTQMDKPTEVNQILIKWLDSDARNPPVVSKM
# Format: cell-based, HUVEC
Known IC50 of a selection of compounds
Report the value in nM with no unit label.

CC(=O)N1CCC(NC(=O)NC2CC3(C)CCC2CC3)CC1 (stereo not given); 300
CC(=O)N1CCC(NC(=O)Nc2cccc(C(F)(F)F)c2)CC1; 226
CC(C)S(=O)(=O)N1CCC(NC(=O)Nc2ccc(OC(F)(F)F)cc2)CC1; 64
O=C(Nc1ccc(OC(F)(F)F)cc1)NC1CCN(C(=O)c2cccnc2)CC1; 6.7

Annotate the compound CC(=O)N1CCC(NC(=O)NC2CCC(C)(C)CC2)CC1 with its measured IC50. 38

Annotate the compound O=C(NC1CCCCC1)NC1CCN(C(=O)c2ccccn2)CC1 with its measured IC50. 67

Annotate the compound CC(=O)N1CCC(NC(=O)NC2C3CCC2CC3)CC1 (stereo not given) with its measured IC50. 120

----------
# assay details: Oral bioavailability in rat
# Format: ADME, organism-based
# setup conditions: in vivo
experimental readout: bioavailability (%)
Report the value in % with no unit label.

Annotate the compound CC(=O)N1CCC(NC(=O)NC23CC4CC(CC(C4)C2)C3)CC1 with its measured bioavailability. 100

All values here come from ChEMBL document CHEMBL1667772.
